Where these numbers come from: patent US20250069697A1

- System: Staphylococcus epidermidis
- test_name: Growth of the isolate in antibiotic mediums, sample 4
- Assay type: cell-based
- run_parameters: microorganism isolated in sample 4 (Staphylococcus epidermidis); grown in antibiotic medium
- Text: Each microorganism was growth in at least two antibiotic mediums, in which the improved method predicted resistance, and at least two antibiotic mediums in which the improved method predicted susceptibility, in order to corroborate the obtained results.
property_name: Result

smiles_record=NCC[C@H](O)C(=O)N[C@@H]1C[C@H](N)[C@@H](O[C@H]2O[C@H](CN)[C@@H](O)[C@H](O)[C@H]2O)[C@H](O)[C@H]1O[C@H]1O[C@H](CO)[C@@H](O)[C@H](N)[C@H]1O result="Not resistant"
smiles_record=O=C(O)c1cn(C2CC2)c2cc(N3CCNCC3)c(F)cc2c1=O result=Resistant
smiles_record=CO/N=C(\C(=O)N[C@@H]1C(=O)N2C(C(=O)O)=C(CSc3nc(=O)c(=O)[nH]n3C)CS[C@H]12)c1csc(N)n1 result=Resistant
smiles_record=COc1cccc(OC)c1C(=O)N[C@@H]1C(=O)N2[C@@H]1SC(C)(C)[C@@H]2C(=O)O result="Not resistant"
